- measured target: T1, human TREM2 expressed on cells (human, UniProt Q9NZC2 19-230)
- T1 construct: BW5147.G.1.4 cells stably expressing human TREM2 together with Dap12, or endogenous TREM2 of primary human myeloid cells; also called huT2 BW; hTREM2 expressing cell line
- T1 sequence: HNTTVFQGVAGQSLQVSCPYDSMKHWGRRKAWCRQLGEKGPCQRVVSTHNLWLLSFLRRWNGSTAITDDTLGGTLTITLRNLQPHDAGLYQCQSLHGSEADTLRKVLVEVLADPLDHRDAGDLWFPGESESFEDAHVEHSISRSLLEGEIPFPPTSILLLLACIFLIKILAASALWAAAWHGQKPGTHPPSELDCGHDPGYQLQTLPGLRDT
- assay overview: FACS, hTREM2 BW cells

binder	Bmax (MFI)
AL2p-37 (antibody, IgG1, V domains shown, Fab and IgG formats under one id; also called AL2p-37 huIgG1) VH: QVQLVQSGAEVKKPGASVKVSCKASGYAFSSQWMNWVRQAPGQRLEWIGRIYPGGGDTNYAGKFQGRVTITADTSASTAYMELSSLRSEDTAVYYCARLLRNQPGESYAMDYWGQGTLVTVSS VL: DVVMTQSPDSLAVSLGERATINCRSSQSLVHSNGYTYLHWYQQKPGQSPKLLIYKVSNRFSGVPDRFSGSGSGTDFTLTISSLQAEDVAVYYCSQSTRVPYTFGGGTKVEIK	216000

Every entry's value here was drawn from patent US20200317776A1.
